tested on: MC1/MC4; conditions: ratio MC1/MC4;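 note: ratio of EC50 values obtained at MC1 versus MC4 receptors, with MC1 potency measured by luciferase reporter activity in stably transfected cells expressing human MC1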
metricName: MC1/MC4 selectivity
Output: the number by itself.

QUERY: If you can, please state the reported MC1/MC4 selectivity value of Arg-cyclo[hCys-(1-Me-His)-D-Phe-Arg-Trp-Cys]-NH2 [Compound 156] .
RESULT: 158.41

QUERY: If you can, please state the reported MC1/MC4 selectivity value of N-phenylsulfonyl-cyclo[hCys-His-D-Phe-Arg-Trp-Cys]-NH2 [Compound 150] .
RESULT: 12.88

QUERY: If you can, please state the reported MC1/MC4 selectivity value of Ac-Tyr-Arg-cyclo[Cys-Glu-(5-Me-His)-D-Phe-Arg-Trp-Cys]-NH2 [Compound 97] .
RESULT: 8.03

QUERY: If you can, please state the reported MC1/MC4 selectivity value of Ac-Tyr-Arg-cyclo[Cys-Glu-(4-phenyl-1H-imidazol-2-yl-Ala)-D-Phe-Arg-Trp-Cys]-NH2 [Compound 103] .
RESULT: 75.59

QUERY: If you can, please state the reported MC1/MC4 selectivity value of N-cyclopentanecarbonyl-cyclo[hCys-His-D-Phe-Arg-Trp-Cys]-NH2 [Compound 143] .
RESULT: 19.27
